# Test system: HL-1
# method.description: relative cell viability (CellTiter-Glo) vs DMSO control (% of DMSO control); higher = more viable cells
# measurement.conditions: oxygen condition: normoxia 72 h; 40 nM
Where a name gives a salt, the structure may show the parent alone.
observation.type: relative cell viability

Quick note, relative cell viability for "O=C(O)C(=O)O.[NH-][C@@H]1CCCC[C@H]1[NH-].[Pt+2]" landed at 97.4

Quick note, relative cell viability for CCc1c2c(nc3ccc(OC(=O)N4CCC(N5CCCCC5)CC4)cc13)-c1cc3c(c(=O)n1C2)COC(=O)[C@]3(O)CC [Irinotecan HCl Trihydrate] landed at 99

Quick note, relative cell viability for "CC(C)C[C@H](NC(=O)[C@@H](O)[C@H](N)Cc1ccccc1)C(=O)O" landed at 101

Quick note, relative cell viability for "CN1CC(=O)NC1=N" landed at 102

Quick note, relative cell viability for "Nc1ncn([C@@H]2O[C@H](CO)[C@@H](O)[C@H]2O)c(=O)n1" landed at 98.6

Quick note, relative cell viability for CC1CC(OC(=O)C(O)c2ccccc2)CC(C)(C)C1 (stereo unspecified) [Cyclandelate] landed at 103

Quick note, relative cell viability for CCN(CCCc1ccccc1)CCCc1ccccc1 [Alverine Citrate] landed at 102

Quick note, relative cell viability for "CS(=O)(=O)c1ccc([C@@H](O)[C@@H](CO)NC(=O)C(Cl)Cl)cc1" landed at 101

Quick note, relative cell viability for "CO[C@H]1O[C@@H]2O[C@@]3(C)CC[C@H]4[C@H](C)CC[C@@H]([C@H]1C)[C@@]24OO3" landed at 103

Quick note, relative cell viability for "Nc1nc(N)nc(-c2cc(Cl)ccc2Cl)n1" landed at 98.2

Quick note, relative cell viability for "CCCCC(=O)N(Cc1ccc(-c2ccccc2-c2nnn[nH]2)cc1)[C@H](C(=O)O)C(C)C" landed at 98.1
